As shown below, each of these compounds has a reported EC50 value.
Target: mouse RORγ (Mus musculus)
Construct: mouse, NM_011281.2 and from Ile251 to Lys516; expressed in transfected cells; host or cells: CHO cells (transient co-transfection with pG5-Luc reporter)
Assay: Luciferase reporter gene assay of inhibitory effect against RORγ transcriptional activity (GAL4-mRORγ plasmid in CHO cells)
Type: cell-based
Details: read-out: LUC EC50 (μM) mRORg
Assay endpoint: EC50

* Cc1ccc(NC(=O)C[C@H](CCC(=O)O)c2noc(-c3csc(CC(C)C)n3)c2C2CC2)c(Cl)c1 | < 3 µM
* CC(=O)N1C[C@H](C(=O)Nc2ccc(C)cc2C)[C@@H](c2nnc(-c3ccc(C(C)C)cc3)n2C2CC2)C1 [Example F-371] | < 3 µM
* CC(=O)N1C[C@@H](C(=O)Nc2ccc(C)cc2C)[C@H](c2nnc(CCCC(C)C)n2C2CC2)C1 | > 3 µM
* Cc1cc(Cl)c(NC(=O)C[C@H](CCC(=O)O)c2noc(-c3cc(CCC(C)(C)C)on3)c2C2CC2)cc1F | < 3 µM

* * *

Molecular target: mouse RORγ (Mus musculus)
Construct: mouse, NM_011281.2 and from Ile251 to Lys516; expressed in transfected cells; host or cells: CHO cells (transient co-transfection with pG5-Luc reporter)
Sequence (P51450 251-516): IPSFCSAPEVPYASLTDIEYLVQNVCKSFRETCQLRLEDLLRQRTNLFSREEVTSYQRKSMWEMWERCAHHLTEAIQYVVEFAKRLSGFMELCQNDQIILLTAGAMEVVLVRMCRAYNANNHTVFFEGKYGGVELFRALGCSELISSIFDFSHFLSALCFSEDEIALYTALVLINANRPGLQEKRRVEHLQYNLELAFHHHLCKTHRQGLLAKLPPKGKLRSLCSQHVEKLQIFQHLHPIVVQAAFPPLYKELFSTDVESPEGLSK
Assay: Luciferase reporter gene assay of inhibitory effect against RORγ transcriptional activity (GAL4-mRORγ plasmid in CHO cells)
Format: cell-based
Conditions: read-out: LUC EC50 (μM) mRORg
As shown below, each of these molecules has a reported EC50 value.
Assay endpoint: EC50

• Cc1ccc(NC(=O)C[C@H](CCC(=O)O)c2noc(-c3cc(C(C)(C)C(F)(F)F)on3)c2C2CC2)c(Cl)c1 = < 3 µM
• Cc1ccc(NC(=O)C[C@H](CCC(=O)O)c2noc(-c3cc(C(F)(F)C4CC4)on3)c2C2CC2)c(Cl)c1 = < 3 µM
• Cc1c(Cl)cccc1NC(=O)CCc1nnc(CCCC(C)C)n1C1CC1 = < 3 µM
• COc1cc(C)ccc1CNC(=O)[C@H]1CCC(=O)N(C)[C@@H]1c1nnc(CCCC(C)(C)C)n1C1CC1 = < 3 µM
• Cc1c(Cl)cccc1NC(=O)CCc1nnc(CCOC(C)(C)C)n1C1CC1 = < 3 µM
• Cc1c(O)cccc1CNC(=O)CCc1nnc(CCC(C)C)n1C1CC1 = > 3 µM
• CN[C@@H](CC(=O)Nc1ccc(C)cc1C)c1nnc(CCCC(C)(C)C)n1C1CC1 = < 3 µM
• Cc1ccc(NC(=O)CC(CCCN2C(=O)c3ccccc3C2=O)c2nnc(CCCC(C)C)n2C2CC2)c(C)c1 (racemic) = < 3 µM
• COc1ccccc1CNC(=O)CCc1nnc(CCC(C)C)n1C1CC1 = > 3 µM
• Cc1ccc(NC(=O)C[C@H](CCC(=O)O)c2noc(-c3cc(CCC(C)(C)C)on3)c2C2CC2)c(Cl)c1 = < 3 µM
• CCn1c(CCC2CCCCC2)nnc1[C@H]1CCCC[C@@H]1C(=O)Nc1cccc2ccccc12 (racemic) = < 3 µM
• CNC(=O)C(C)(C)CCc1nnc(CCC(=O)Nc2cccc(Cl)c2C)n1C1CC1 = > 3 µM
• COc1cc(C)ccc1CNC(=O)CCc1nnc(CC[C@H]2CC[C@H](C)CC2)n1C1CC1 = < 3 µM
• COCC(=O)NC[C@@H](CC(=O)Nc1ccc(C)cc1C)c1nnc([C@H]2C[C@@H](CC(C)C)C2)n1C1CC1 = < 3 µM
• Cc1ccc(NC(=O)C[C@H](CCC(=O)O)c2noc(-c3cc(CCC(C)C)on3)c2C(F)(F)F)c(Cl)c1 = < 3 µM
• COc1ccc(CNC(=O)CCc2nnc(CCC(C)C)n2C2CC2)c(C)c1 = > 3 µM
